All figures here come from paper PMC12951562.

Each record here notes measured remaining activity at 10 µM.
target: STAT1 (Homo sapiens); construct: made in house; host or cells: HEK293 (transient transfection), unpurified extract; test: biochemical; format: binding; conditions: primary screen, 10 μM; read-out: percent of DMSO vehicle control
Sequence (P42224 whole entry): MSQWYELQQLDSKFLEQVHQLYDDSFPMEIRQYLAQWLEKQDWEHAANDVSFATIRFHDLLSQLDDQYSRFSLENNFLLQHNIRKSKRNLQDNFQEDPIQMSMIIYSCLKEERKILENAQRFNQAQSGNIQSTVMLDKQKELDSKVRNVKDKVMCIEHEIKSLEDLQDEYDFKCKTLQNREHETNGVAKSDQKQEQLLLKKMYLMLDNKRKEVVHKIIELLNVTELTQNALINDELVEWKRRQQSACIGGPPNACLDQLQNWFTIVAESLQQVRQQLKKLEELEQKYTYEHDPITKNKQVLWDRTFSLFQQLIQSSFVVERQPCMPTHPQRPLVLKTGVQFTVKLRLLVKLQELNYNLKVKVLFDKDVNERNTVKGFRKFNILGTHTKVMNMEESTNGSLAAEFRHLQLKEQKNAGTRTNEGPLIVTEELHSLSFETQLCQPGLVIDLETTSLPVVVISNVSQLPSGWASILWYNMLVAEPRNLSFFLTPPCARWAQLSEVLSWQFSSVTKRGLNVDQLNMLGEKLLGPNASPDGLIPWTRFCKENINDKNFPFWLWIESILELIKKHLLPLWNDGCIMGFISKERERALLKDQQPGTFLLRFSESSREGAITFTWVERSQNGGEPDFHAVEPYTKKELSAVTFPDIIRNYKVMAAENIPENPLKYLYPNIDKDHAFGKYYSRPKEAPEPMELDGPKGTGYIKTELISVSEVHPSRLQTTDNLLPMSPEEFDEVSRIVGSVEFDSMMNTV
Form entry: value (%) — number only.

Solved entries (count: 2):
{"columns": ["Compound string", "Numeric readout"],
 "data": [
  ["C/C(=C\\C(=O)N[C@H](C(=O)N1CCC[C@H]1C(=O)N(c1ccccc1)c1ccc(I)cc1)C(C)(C)C)c1ccc(OP(=O)(O)O)cc1", 0],
  ["CC(C)(C)[C@H](NC(=O)/C=C/c1ccc(OP(=O)(O)O)cc1)C(=O)N1CCC[C@H]1C(=O)N(c1ccccc1)c1ccc(I)cc1", 0.7]
]}

In plain terms, O=C(CCl)Nc1cccc(CNC(=O)[C@H](Cc2ccc(OP(=O)(O)O)cc2)NC(=O)Cc2ccc(F)cc2)c1 has a documented remaining activity at 10 µM of 49.8

The value of remaining activity at 10 µM measured for the compound O=C(COc1ccc2cc(C(=O)Nc3ccccc3)ccc2c1)NCc1ccc(OP(=O)(O)O)c(OP(=O)(O)O)c1 turned out to be 48.2

---

biological target: STAT3(N567K)-nonphosphorylated (Homo sapiens, UniProt P40763, N567K); construct: made in house; host or cells: HEK293 (transient transfection), unpurified extract, dephosphorylated by endogenous phosphatases; experiment: biochemical; type: binding; conditions: primary screen, 10 μM; read-out: percent of DMSO vehicle control
Sequence (P40763 whole entry N567K): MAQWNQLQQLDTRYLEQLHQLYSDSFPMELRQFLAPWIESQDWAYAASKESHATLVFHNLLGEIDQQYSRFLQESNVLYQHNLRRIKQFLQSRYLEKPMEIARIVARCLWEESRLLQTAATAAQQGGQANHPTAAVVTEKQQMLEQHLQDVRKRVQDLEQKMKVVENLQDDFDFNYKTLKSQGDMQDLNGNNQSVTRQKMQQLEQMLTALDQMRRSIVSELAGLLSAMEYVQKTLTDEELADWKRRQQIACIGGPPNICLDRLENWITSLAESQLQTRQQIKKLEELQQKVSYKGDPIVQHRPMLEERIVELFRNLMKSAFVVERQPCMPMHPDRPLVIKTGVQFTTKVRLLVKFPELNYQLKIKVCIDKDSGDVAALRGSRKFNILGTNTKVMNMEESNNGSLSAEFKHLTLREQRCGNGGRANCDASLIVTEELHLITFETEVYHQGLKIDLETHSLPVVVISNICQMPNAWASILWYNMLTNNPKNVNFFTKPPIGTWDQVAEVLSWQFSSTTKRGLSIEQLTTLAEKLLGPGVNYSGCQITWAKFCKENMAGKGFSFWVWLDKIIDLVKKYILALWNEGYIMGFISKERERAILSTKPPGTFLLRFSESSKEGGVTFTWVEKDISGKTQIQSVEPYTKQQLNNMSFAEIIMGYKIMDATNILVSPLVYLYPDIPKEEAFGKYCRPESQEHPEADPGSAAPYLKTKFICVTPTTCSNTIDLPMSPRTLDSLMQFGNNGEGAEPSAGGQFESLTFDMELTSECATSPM
Catalogue of remaining activity at 10 µM values
Express the result in % but write the number alone.

{"columns": ["Compound string", "remaining activity at 10 µM (%)"],
 "data": [
  ["O=C(CCl)Nc1cccc(CNC(=O)[C@H](Cc2ccc(OP(=O)(O)O)cc2)NC(=O)Cc2ccc(F)cc2)c1", 86.5],
  ["CC(C)(C)[C@H](NC(=O)/C=C/c1ccc(OP(=O)(O)O)cc1)C(=O)N1CCC[C@H]1C(=O)N(c1ccccc1)c1ccc(I)cc1", 0.2],
  ["O=C(COc1ccc2cc(C(=O)Nc3ccccc3)ccc2c1)NCc1ccc(OP(=O)(O)O)c(OP(=O)(O)O)c1", 97.5]
]}

Now look at this entry.
Reported remaining activity at 10 µM for C/C(=C\C(=O)N[C@H](C(=O)N1CCC[C@H]1C(=O)N(c1ccccc1)c1ccc(I)cc1)C(C)(C)C)c1ccc(OP(=O)(O)O)cc1 was 0

---

molecular target: GRB14 (Homo sapiens, UniProt Q14449); construct: the DNA-tagged SH2 domain concentrations used in this study were <0.1 nM; made in house; host or cells: HEK293 (transient transfection; unpurified extract); test: biochemical; type: binding; conditions: read-out: percent of DMSO vehicle control
Sequence (Q14449 439-535 limits assumed): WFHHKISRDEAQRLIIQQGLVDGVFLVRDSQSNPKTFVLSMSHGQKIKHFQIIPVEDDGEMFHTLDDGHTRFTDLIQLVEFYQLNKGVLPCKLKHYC
Non-standard residues stand in square brackets, D forms with d. Residues, ends and D or L forms follow the SMILES beside them. *: point of attachment. pY = N[C@@H](Cc1ccc(OP(=O)(O)O)cc1)C(=O)O; Caffeoyl = O=C(/C=C/c1ccc(O)c(O)c1)*
Measurement label: remaining activity at 10 µM (%)
Give a bare numeral; the unit % is implied.

Example entries begin here.
{"columns": ["Compound", "Target under test", "remaining activity at 10 µM [%]"],
 "data": [
  ["CC(=O)N1CC[C@H]2CC[C@@H](C(=O)N[C@@H](CCC(N)=O)C(=O)NC(c3ccccc3)c3ccccc3)N2C(=O)[C@@H](NC(=O)c2cc3cc(C(F)(F)P(=O)(O)O)ccc3[nH]2)C1", "GRB14 (Homo sapiens, UniProt Q14449)", 110],
  ["CC(=O)N[C@@H](Cc1ccc(CP(=O)(O)O)cc1)C(=O)NC1(C(=O)N[C@@H](CC(N)=O)C(=O)NCCCc2c(O)ccc3ccccc23)CCCCC1", "GRB14 (Homo sapiens, UniProt Q14449)", 45.5],
  ["NC(=O)CC[C@H](NC(=O)[C@@H]1CC[C@@H]2CCN(C(=O)CCCCCC#Cc3cccc4c3CN(C3CCC(=O)NC3=O)C4=O)C[C@H](NC(=O)c3cc4cc(C(F)(F)P(=O)(O)O)ccc4[nH]3)C(=O)N21)C(=O)NC(c1ccccc1)c1ccccc1 (stereo partly shown)", "GRB14 (Homo sapiens, UniProt Q14449)", 43.2]
]}

Please turn your attention to the following entry.
// recorded remaining activity at 10 µM for CC[C@H](C)[C@H](NC(=O)[C@H](CCC(=O)O)NC(=O)[C@H](CCC(=O)O)NC(=O)[C@H](Cc1ccc(OP(=O)(O)O)cc1)NC(=O)/C=C/c1ccc(O)c(O)c1)C(=O)N[C@@H](CCC(=O)O)C(=O)O [Caffeic acid-pYEEIE] (Caffeoyl-[pY]EEIE-OH) : 0
